Tested on: SK-OV-3
method_description: NCI tumour cell line growth inhibition, 48 h
Activity calls are given as the source filed them. No stated cut-off is given here; in the data, active = GI50 up to about 1.1 µM and inactive = higher. Non-standard residues stand in square brackets, D forms with d. Residues, ends and D or L forms follow the SMILES beside them. ξ: configuration not given here. *: point of attachment. NMeF = CN[C@@H](Cc1ccccc1)C(=O)O; ξNMeV = CNC(C(=O)O)C(C)C; Boc = CC(C)(C)OC(=O)*; OBn = c1ccc(CO*)cc1
test_readout: GI50

Solved cases (6 shown):
# molecule, target, GI50
data = [
    ("CN(c1nc(=[N+](C)C)ss1)C1CCCCC1", "SK-OV-3", "> 100 µM (inactive)"),
    ("Cn1cnc([N+](=O)[O-])c1Sc1nc2cc([N+](=O)[O-])ccc2[nH]1", "SK-OV-3", "22 µM (inactive)"),
    ("O=C(O)c1nn(-c2ccccc2)nc1-c1nn(-c2ccccc2)nc1C(=O)O", "SK-OV-3", "> 100 µM (inactive)"),
    ("COC1=CC(=O)c2ccccc2C1(CCC=C(C)C)C1=NC(C)(C)CO1 (stereo not drawn)", "SK-OV-3", "86.5 µM (inactive)"),
    ("O=c1c2sc3ccccc3sc=2c(=O)c2c(Cl)c(Cl)c(Cl)c(Cl)c12", "SK-OV-3", "> 100 µM (inactive)"),
    ("COc1ccc2cc(-c3ccc(OC)c(OC)c3)c(=O)oc2c1", "SK-OV-3", "> 100 µM (inactive)"),
]

Could you report GI50 for every entry in the following list?
1. C#CCn1c(=O)c(I)cn(/C(=C/C(=O)OCC)C(=O)OCC)c1=O
2. Cc1c2ccccc2cc2nc3ccccc3n12
3. COc1ccc(C2Oc3c(OC)cc(CCCO)cc3C2CO)cc1OC (stereo not drawn)
4. COC1=C(NC(C)=O)C(=O)c2nc3n(c2C1=O)CCC3
5. CCCCCCCCCCCCCCCCCC[N+](C)(C)Cc1ccc(C[N+](C)(C)CCCCCCCCCCCCCCCCCC)cc1
6. Cc1ccc(S(=O)(=O)N2CCC3(C(/C=C/c4ccccc4)=Nc4ccccc43)C2c2ccccc2)cc1 (stereo not drawn)

[A]
1. 17.9 µM (inactive)
2. > 10 µM (inactive)
3. > 100 µM (inactive)
4. 41.6 µM (inactive)
5. 26.6 µM (inactive)
6. > 100 µM (inactive)

Could you report GI50 for every entry in the following list?
1. Cn1c(=O)c2c(nc(N/N=C3/SCC(=O)N3Cc3ccccc3)n2C)n(C)c1=O
2. CCC(=O)ONC(=O)Cn1ccc([N+](=O)[O-])n1
3. Cn1cc(C(=O)c2nccc3c2cnc2ccccc23)ccc1=O

[A]
43.5 µM (inactive)
> 100 µM (inactive)
> 100 µM (inactive)

Could you report GI50 for every entry in the following list?
1. [N-]=[N+]=NCc1cccc(Nc2cc(=O)[nH]c(=O)[nH]2)c1
2. COc1ccccc1-c1cc(O)c2c(C)cc(C)nc2n1
3. O=C1NC(=O)C(CCC(=O)c2cccc3ccccc23)C(=O)N1
4. COc1ccc(NC(=O)NNS(=O)(=O)c2ccc(C)cc2)cc1
5. CN(C)c1ccc(/C=C2\Cc3ccccc3C2=O)cc1Br
6. COC(=O)C1[C@@H](C(=O)OC)C(=O)O[C@H]1c1cc(OC)c(OC)c(OC)c1 (stereo partly drawn)

[A]
1: > 100 µM (inactive); 2: > 100 µM (inactive); 3: > 100 µM (inactive); 4: > 100 µM (inactive); 5: > 100 µM (inactive); 6: > 100 µM (inactive)

Could you report GI50 for every entry in the following list?
1. COc1cc2oc(=O)cc(C)c2c(OC)c1OC(C)=O
2. O=C(NCCCCCCCCNC(=O)c1cnc2ccccc2n1)c1cnc2ccccc2n1
3. O=C1NC(=O)/C(=C/c2ccc(S(=O)(=O)N/N=C/c3ccccc3)cc2)N1
4. Cc1ccccc1N/C(N)=N/C#N
5. CC1(C)CC23C4COC(=O)C2CCC1C3CC4=O (stereo not drawn)
6. Cc1ccccc1N(C)S(=O)(=O)c1ccccc1[N+](=O)[O-]
7. N=S(c1ccccc1[N+](=O)[O-])c1ccccc1[N+](=O)[O-]
8. COC(=O)/C1=C/c2c([nH]c3ccccc23)/C(C(=O)OC)=C\c2c1[nH]c1ccccc21

[A]
1: > 100 µM (inactive); 2: > 100 µM (inactive); 3: > 100 µM (inactive); 4: > 100 µM (inactive); 5: 39.3 µM (inactive); 6: 53.6 µM (inactive); 7: 6.27 µM (inactive); 8: > 50 µM (inactive)

Could you report GI50 for every entry in the following list?
1. Cc1ccc(N/C(SCc2ccccc2)=C(\C(Cl)=C(Cl)Cl)[N+](=O)[O-])c(C)c1
2. Cc1cc(O)nc2c3c(ccc12)OC(C)(C)C=C3
3. COC(=O)/C(C#N)=C1\CCC(O)N1C (stereo not drawn)
4. CC(C)C(C(=O)N1CCC[C@@H]1C(=O)OCc1ccccc1)N(C)C(=O)C(C(C)C)N(C)C(=O)[C@H](Cc1ccccc1)N(C)C(=O)[C@H](NC(=O)OC(C)(C)C)C(C)C (stereo partly drawn) (Boc-[dV][NMeF][ξNMeV][ξNMeV][dP]-OBn)

[A]
["39.8 µM (inactive)", "11.3 µM (inactive)", "> 100 µM (inactive)", "> 100 µM (inactive)"]

Could you report GI50 for every entry in the following list?
1. C#CCCCC(=C)C[C@@H]1OC(=O)[C@H](C)[C@@H]1O
2. Oc1ccc(-c2csc(N/N=C3\NC/C(=C/c4ccc5c(c4)OCO5)S3)n2)cc1O
3. Cn1nc(-c2ccccc2)c(N=[N+]=[N-])cc1=O
4. Cc1cc(NC2=NCCO2)c2c(c1C)CCCC2
5. NCCc1nc(-c2nc(C(=O)O)cs2)cs1
6. O=S(O)CCCCSSCC(O)C(O)CSSCCCCS(=O)O (stereo not drawn)
7. O=C1Nc2cccc(Cl)c2/C1=C\c1cccnc1

[A]
1. > 100 µM (inactive)
2. > 100 µM (inactive)
3. 1.59 µM (inactive)
4. 20.4 µM (inactive)
5. > 100 µM (inactive)
6. > 100 µM (inactive)
7. 4.12 µM (inactive)

Could you report GI50 for every entry in the following list?
1. N#CNC1=NC(CCCC(=O)Nc2cccc([N+](=O)[O-])c2)=C(c2nc3ccccc3[nH]2)C(N)N1 (stereo not drawn)
2. O=P(O)(OCC(O)O)OCC(O)O
3. Cc1c2c(n(CCc3ccccc3)c1C)N(C)N=C(C#N)S2(=O)=O

[A]
> 100 µM (inactive)
> 100 µM (inactive)
> 100 µM (inactive)

Data credit: ChEMBL document CHEMBL1201862
